Target: AXL (Homo sapiens, UniProt P30530)
Construct: purchased Thermo Fisher Scientific (SelectScreen service)
Sequence (P30530 26-894): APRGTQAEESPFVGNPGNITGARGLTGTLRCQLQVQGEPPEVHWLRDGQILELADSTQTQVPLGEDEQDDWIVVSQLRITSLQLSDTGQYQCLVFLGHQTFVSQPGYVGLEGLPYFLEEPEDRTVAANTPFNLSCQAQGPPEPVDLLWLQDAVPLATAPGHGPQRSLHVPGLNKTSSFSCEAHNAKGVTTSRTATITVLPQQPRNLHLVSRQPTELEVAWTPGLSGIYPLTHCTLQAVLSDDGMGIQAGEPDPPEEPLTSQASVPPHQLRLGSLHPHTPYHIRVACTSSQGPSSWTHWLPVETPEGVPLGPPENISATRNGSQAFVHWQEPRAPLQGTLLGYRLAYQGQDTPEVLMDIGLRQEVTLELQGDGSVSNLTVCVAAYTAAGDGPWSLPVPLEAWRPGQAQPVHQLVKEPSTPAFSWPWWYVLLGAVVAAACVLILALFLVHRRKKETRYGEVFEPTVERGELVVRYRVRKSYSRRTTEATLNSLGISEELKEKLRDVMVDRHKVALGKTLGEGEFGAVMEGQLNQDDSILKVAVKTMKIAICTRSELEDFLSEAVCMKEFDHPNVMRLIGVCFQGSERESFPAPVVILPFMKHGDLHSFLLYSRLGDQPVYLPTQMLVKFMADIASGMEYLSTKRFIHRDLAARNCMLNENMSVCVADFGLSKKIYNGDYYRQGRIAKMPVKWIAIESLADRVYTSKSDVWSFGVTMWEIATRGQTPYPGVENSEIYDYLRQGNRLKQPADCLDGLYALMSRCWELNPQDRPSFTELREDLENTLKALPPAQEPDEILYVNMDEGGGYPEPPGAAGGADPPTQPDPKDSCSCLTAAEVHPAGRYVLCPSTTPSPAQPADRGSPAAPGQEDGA
Assay: SelectScreen kinase selectivity assay
Assay type: biochemical
parameter_measured: IC50

// query For the molecule shown here, Cc1ccc(O)c(C)c1-n1c(N)c(C(N)=O)c2cc(CCCCCC(=O)NO)c(C)nc21 [PKHD-5] , give the reported IC50.
// result > 50 µM

====

Biological target: RAF1 (Homo sapiens, UniProt P04049, Y340D/Y341D)
Construct: purchased Thermo Fisher Scientific (SelectScreen service)
Assay: SelectScreen kinase selectivity assay
Type: biochemical
parameter_measured: IC50

// query Tell me reported IC50 for Cc1ccc(O)c(C)c1-n1c(N)c(C(N)=O)c2cc(CCCCCC(=O)NO)c(C)nc21 , tested with RAF1 (Homo sapiens, UniProt P04049, Y340D/Y341D).
// result > 50 µM

====

Molecular target: CDK1 (Homo sapiens, UniProt P06493)
Construct: purchased Thermo Fisher Scientific (SelectScreen service)
Sequence (P06493 whole entry): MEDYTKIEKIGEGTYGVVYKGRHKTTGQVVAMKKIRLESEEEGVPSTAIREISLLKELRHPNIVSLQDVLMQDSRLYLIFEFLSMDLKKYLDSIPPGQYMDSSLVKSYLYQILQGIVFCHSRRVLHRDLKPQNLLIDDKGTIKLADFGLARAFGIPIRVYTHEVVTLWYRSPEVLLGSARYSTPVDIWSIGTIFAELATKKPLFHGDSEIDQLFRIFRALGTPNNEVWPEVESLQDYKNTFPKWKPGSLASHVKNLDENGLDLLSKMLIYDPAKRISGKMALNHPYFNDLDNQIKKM
Sequence (P14635 whole entry partner): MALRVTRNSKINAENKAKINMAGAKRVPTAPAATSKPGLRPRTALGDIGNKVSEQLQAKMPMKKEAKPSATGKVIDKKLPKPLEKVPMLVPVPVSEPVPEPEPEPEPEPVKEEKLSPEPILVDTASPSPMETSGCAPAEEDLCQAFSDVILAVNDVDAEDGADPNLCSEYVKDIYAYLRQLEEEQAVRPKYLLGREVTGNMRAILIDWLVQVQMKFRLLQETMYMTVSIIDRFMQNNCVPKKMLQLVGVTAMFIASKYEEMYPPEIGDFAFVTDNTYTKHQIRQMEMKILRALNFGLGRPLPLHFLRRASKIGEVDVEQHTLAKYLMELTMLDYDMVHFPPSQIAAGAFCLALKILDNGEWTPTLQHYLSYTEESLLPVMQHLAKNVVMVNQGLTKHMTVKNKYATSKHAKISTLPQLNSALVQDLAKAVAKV
Assay: SelectScreen kinase selectivity assay
Type: biochemical
parameter_measured: IC50

// query For the compound shown here, Cc1ccc(O)c(C)c1-n1c(N)c(C(N)=O)c2cc(CCCCCC(=O)NO)c(C)nc21 , give the reported IC50.
// result > 50 µM

====

Molecular target: FRK (Homo sapiens)
Construct: purchased Thermo Fisher Scientific (SelectScreen service)
Sequence (P42685 whole entry): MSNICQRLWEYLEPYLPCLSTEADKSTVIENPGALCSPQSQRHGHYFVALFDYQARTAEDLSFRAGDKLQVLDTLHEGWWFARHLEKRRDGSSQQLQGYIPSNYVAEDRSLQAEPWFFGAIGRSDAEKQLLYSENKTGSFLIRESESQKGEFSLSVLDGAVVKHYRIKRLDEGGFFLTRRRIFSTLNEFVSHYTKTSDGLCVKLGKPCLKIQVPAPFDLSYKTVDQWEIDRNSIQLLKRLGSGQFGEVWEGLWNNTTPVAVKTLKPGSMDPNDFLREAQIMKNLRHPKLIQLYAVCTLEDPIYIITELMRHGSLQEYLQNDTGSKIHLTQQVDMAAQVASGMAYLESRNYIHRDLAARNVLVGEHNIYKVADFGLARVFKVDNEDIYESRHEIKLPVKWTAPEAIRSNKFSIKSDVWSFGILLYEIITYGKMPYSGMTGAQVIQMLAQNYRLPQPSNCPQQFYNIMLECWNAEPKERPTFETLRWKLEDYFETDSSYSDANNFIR
Test: SelectScreen kinase selectivity assay
Format: biochemical
parameter_measured: IC50

// query For the compound shown here, Cc1ccc(O)c(C)c1-n1c(N)c(C(N)=O)c2cc(CCCCCC(=O)NO)c(C)nc21 [PKHD-5] , give the reported IC50.
// result > 50 µM

====

Target: ERBB4 (Homo sapiens, UniProt Q15303)
Construct: purchased Thermo Fisher Scientific (SelectScreen service)
Sequence (Q15303 26-1308): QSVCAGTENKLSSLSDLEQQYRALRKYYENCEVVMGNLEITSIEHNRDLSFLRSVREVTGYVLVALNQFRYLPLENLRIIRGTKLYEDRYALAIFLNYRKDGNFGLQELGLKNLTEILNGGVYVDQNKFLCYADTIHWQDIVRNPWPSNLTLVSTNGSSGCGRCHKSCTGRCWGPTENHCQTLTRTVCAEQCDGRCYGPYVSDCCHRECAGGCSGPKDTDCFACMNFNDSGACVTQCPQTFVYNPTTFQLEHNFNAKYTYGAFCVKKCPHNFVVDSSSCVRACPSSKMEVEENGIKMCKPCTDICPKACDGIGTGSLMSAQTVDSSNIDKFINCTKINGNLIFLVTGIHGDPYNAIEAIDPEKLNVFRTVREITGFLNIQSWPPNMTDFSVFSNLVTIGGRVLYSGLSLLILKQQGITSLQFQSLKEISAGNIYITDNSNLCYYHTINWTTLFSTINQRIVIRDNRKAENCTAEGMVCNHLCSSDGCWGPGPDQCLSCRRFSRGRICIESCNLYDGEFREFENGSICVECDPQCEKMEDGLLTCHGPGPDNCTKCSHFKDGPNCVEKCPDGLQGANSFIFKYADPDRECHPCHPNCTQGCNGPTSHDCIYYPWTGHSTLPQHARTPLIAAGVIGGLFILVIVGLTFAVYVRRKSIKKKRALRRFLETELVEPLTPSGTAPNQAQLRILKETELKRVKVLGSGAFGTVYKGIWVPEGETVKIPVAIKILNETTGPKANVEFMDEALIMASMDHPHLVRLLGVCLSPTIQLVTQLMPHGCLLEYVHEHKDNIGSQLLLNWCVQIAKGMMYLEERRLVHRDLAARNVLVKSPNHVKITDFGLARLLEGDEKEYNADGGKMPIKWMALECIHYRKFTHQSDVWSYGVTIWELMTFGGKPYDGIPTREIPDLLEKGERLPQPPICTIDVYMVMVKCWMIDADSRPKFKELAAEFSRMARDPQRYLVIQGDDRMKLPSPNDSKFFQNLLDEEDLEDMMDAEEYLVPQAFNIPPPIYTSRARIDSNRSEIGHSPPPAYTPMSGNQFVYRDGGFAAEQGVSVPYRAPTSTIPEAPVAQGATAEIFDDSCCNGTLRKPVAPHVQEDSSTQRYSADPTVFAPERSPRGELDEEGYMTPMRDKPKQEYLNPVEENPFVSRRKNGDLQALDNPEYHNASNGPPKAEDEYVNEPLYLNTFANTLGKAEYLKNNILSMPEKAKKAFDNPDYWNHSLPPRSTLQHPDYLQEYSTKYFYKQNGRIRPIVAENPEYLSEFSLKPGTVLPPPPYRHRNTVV
Assay: SelectScreen kinase selectivity assay
Type: biochemical
parameter_measured: IC50

// query For the compound shown here, Cc1ccc(O)c(C)c1-n1c(N)c(C(N)=O)c2cc(CCCCCC(=O)NO)c(C)nc21 [PKHD-5] , give the reported IC50.
// result > 50 µM

====

Molecular target: FES (Homo sapiens)
Construct: purchased Thermo Fisher Scientific (SelectScreen service)
Sequence (P07332 whole entry): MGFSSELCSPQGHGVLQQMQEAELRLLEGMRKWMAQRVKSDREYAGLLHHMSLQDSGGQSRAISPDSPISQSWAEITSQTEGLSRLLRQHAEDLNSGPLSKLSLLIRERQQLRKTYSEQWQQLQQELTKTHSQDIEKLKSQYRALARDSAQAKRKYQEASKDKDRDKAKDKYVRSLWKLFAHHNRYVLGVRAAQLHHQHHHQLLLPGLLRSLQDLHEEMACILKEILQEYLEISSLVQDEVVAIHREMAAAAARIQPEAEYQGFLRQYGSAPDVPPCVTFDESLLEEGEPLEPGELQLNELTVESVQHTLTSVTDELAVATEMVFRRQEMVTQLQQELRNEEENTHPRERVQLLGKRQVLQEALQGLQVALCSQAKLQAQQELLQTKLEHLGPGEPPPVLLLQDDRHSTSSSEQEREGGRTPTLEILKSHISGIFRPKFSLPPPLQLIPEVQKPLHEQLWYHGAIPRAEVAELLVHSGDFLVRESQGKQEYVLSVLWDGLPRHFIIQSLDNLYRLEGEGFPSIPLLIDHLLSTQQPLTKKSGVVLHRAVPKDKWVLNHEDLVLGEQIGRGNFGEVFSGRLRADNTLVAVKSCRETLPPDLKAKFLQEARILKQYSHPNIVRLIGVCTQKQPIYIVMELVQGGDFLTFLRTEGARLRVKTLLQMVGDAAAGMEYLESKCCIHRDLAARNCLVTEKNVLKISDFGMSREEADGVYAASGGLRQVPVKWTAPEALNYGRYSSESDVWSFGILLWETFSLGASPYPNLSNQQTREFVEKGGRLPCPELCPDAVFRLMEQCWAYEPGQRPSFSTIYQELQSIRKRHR
Assay: SelectScreen kinase selectivity assay
Format: biochemical
parameter_measured: IC50

// query For the molecule shown here, Cc1ccc(O)c(C)c1-n1c(N)c(C(N)=O)c2cc(CCCCCC(=O)NO)c(C)nc21 , give the reported IC50.
// result > 50 µM

====

Give pIC50 for every item shown.
Molecular target: Human recombinant HDAC2 enzyme (Homo sapiens, UniProt Q92769)
Sequence (Q92769 whole entry): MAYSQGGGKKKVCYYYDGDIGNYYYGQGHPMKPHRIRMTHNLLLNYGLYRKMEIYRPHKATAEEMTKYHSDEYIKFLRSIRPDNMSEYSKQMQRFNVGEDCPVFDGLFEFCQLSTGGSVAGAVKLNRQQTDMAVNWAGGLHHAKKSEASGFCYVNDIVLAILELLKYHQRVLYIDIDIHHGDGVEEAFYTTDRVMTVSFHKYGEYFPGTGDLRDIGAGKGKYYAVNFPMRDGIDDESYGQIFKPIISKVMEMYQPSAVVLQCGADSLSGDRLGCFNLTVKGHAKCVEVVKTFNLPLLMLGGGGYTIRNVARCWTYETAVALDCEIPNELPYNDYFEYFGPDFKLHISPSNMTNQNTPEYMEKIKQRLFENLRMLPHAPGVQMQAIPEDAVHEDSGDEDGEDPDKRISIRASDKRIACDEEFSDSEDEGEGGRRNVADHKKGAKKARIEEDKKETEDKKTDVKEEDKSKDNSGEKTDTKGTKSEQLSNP
Experiment: HDAC2 fluorescence enzyme inhibition assay (Boc-Lys(acetyl)-AMC)
Conditions: fluorescence signal-based method
Interpret pIC50 as the negative base-10 log of the concentration measured in mol/L.

// query For the compound shown here, Cc1ccc(O)c(C)c1-n1c(N)c(C(N)=O)c2cc(CCCCCC(=O)NO)c(C)nc21 , give the reported pIC50.
// result 8.64

// query For the compound shown here, Cc1ccc(O)c(C)c1-n1c(N)c(C(N)=O)c2cc(CCCCCC(=O)NO)c(CCCO)nc21 , give the reported pIC50.
// result 8.06

// query For the compound shown here, C=CCc1nc2c(cc1CCCCCC(=O)NO)c(C(N)=O)c(N)n2-c1c(C)ccc(O)c1C , give the reported pIC50.
// result 8.26

// query For the compound shown here, CCc1nc2c(cc1CCCCCC(=O)NO)c(C(N)=O)c(N)n2-c1c(C)ccc(O)c1C , give the reported pIC50.
// result 8.38

// query For the compound shown here, CCCCc1nc2c(cc1CCCCCC(=O)NO)c(C(N)=O)c(N)n2-c1c(C)ccc(O)c1C , give the reported pIC50.
// result 8.14
